target: farnesol X receptor (FXR) (Homo sapiens); construct: endogenous in cells; host or cells: HepG2; assay: Farnesol X receptor (FXR) reporter gene assay (dual luciferase) in HepG2 cells; assay type: cell-based; conditions: dose 10 uM; HepG2 cells, drug treatment 24 hours; firefly/renilla luciferase ratio, Con = 1.00
Sequence (Q96RI1 whole entry): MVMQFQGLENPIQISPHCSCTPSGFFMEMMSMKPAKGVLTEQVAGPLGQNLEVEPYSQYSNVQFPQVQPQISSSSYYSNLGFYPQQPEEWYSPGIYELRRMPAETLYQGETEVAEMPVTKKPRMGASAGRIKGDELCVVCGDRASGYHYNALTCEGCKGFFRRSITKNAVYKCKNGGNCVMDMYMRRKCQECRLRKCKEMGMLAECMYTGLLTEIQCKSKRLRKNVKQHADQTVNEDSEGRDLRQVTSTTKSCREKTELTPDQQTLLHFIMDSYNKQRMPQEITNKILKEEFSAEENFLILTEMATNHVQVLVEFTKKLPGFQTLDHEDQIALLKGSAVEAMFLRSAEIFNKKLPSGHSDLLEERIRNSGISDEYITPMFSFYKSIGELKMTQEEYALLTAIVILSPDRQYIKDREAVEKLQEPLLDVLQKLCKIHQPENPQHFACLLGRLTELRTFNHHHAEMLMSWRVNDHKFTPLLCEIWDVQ
Parameter: fold induction at 10 µM

IN: # get_value(readout='fold induction at 10 µM', item= `COC(=O)[C@H](Cc1ccccc1)NC(=O)/C=C/c1ccc(OCc2c(-c3c(Cl)cccc3Cl)noc2C(C)C)cc1` )
OUT: 7.95

IN: Which value of fold induction at 10 µM has been reported for `CCOC(=O)CNC(=O)/C=C/c1ccc(OCc2cccc(OC(F)(F)F)c2)cc1` in the records?
OUT: 1.02

IN: Endpoint output: fold induction at 10 µM of `O=C(O)CNC(=O)/C=C/c1ccc(OCc2ccc(-c3ccccc3)cc2)cc1` . Value?
OUT: 1.99

a = O=C(O)CNC(=O)/C=C/c1ccc(OCc2cccc([N+](=O)[O-])c2)cc1
b = CCOC(=O)CNC(=O)/C=C/c1ccc(OCc2c(-c3c(Cl)cccc3Cl)noc2C(C)C)cc1
IN: // max by fold induction at 10 µM over [ a , b ] Mark your selection by writing its label.
OUT: b
